This section presents compounds with their documented Average response values.
# measurementTarget: Drosophila OR85b (Drosophila melanogaster, UniProt Q9VHQ7)
# Construct: expressed in transfected cells
# Sequence (Q9VHQ7 whole entry, one chain of several): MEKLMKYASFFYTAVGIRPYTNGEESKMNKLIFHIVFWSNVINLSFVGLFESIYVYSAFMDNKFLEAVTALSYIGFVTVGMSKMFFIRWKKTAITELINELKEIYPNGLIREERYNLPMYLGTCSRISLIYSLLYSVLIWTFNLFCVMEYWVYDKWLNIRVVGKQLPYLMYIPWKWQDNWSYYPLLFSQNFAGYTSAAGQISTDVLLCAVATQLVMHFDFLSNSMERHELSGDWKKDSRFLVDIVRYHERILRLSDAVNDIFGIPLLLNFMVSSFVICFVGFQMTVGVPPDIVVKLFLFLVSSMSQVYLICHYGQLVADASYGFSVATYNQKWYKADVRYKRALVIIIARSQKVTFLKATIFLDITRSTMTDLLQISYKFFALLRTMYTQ
# procedureDetails: Calcium ion fluorescence (GCaMP6) assay, OR85b stable HEK293 cell line
# Type: cell-based
# runParameters: OR85b cell line; cc. 1 µM; VUAA1-normalized response, mean of biological replicates

- compound: "CC1=CCC[C@@]2(C)[C@@H]3CC[C@]12CC3(C)C [(−)-α-neoclovene]"
  Average response: 0.00
- compound: "C=C1CC/C=C(\\C)CC[C@@H]2[C@@H]1CC2(C)C [(-)-trans-caryophyllene]"
  Average response: 0.00
- compound: "CCCCCCCO [1-heptanol]"
  Average response: 0.00
- compound: "C=C1CCC2CC1C2(C)C (stereo not drawn) [beta-pinene]"
  Average response: 0.00
- compound: "CC(=O)OCC(C)C [isobutyl acetate]"
  Average response: 0.044
- compound: "CCOC(=O)CC [ethyl propionate]"
  Average response: 0.00
- compound: "OCCc1ccccc1 [phenethyl alcohol]"
  Average response: 0.10
- compound: "CCCCCC(C)=O [2-heptanone]"
  Average response: 0.037
- compound: "Cc1cccc(O)c1 [3-methylphenol]"
  Average response: 0.0267
- compound: "Cc1ccc(C)c(C)c1 [1,2,4-trimethylbenzene]"
  Average response: 0.0436
- compound: "Cc1cccc(C)c1 [m-xylene]"
  Average response: 0.023
- compound: "CCCOC(C)=O [propyl acetate]"
  Average response: 0.0538

----------
# measurementTarget: Drosophila OR85b (Drosophila melanogaster)
# Construct: expressed in transfected cells
# procedureDetails: Calcium ion fluorescence (GCaMP6) assay, OR85b stable HEK293 cell line
# Assay type: cell-based
# runParameters: OR85b cell line, VOC concentration 100 μM
readoutType: OR85b response (VUAA1-normalized) at 100 μM

- molecule: "OCCc1ccccc1 [phenethyl alcohol]"
  result: 0.00
- molecule: "C=C1CCC2(C(C)C)CC12 (stereo not shown) [sabinene]"
  result: 0.09
- molecule: "CCCCCCCCCCCCCC [tetradecane]"
  result: 0.00
- molecule: "CCCCCCCCC=O [nonanal]"
  result: 0.00
- molecule: "CC/C=C\\CCOC(C)=O [Z-3-hexenyl acetate]"
  result: 0.00
- molecule: "COC(=O)c1ccccc1O [methyl salicylate]"
  result: 0.13
- molecule: "COC(=O)c1ccccc1 [methyl benzoate]"
  result: 0.00
- molecule: "CCCCCCCCCCC [undecane]"
  result: 0.11
- molecule: "CCCOC(C)=O [propyl acetate]"
  result: 0.00
- molecule: "Cc1ccc(C)cc1 [p-xylene]"
  result: 0.06
- molecule: "CCCCCOC(C)=O [pentyl acetate]"
  result: 0.14
- molecule: "Cc1ccc(C(C)C)cc1 [p-cymene]"
  result: 0.09
- molecule: "CC/C=C\\CCO [Z-3-hexenol]"
  result: 0.00
- molecule: "Cc1ccccc1C [o-xylene]"
  result: 0.08
- molecule: "C=Cc1ccccc1 [styrene]"
  result: 0.00
- molecule: "Cc1ccccc1 [toluene]"
  result: 0.11
- molecule: "CC1=CCC23CC1C(C)(C)C2CCC3C (stereo not drawn) [α-funebrene]"
  result: 0.26
- molecule: "Cc1cccc(C)c1 [m-xylene]"
  result: 0.09
- molecule: "C=CC(C)(O)CCC=C(C)C (stereo not shown) [linalool]"
  result: 0.06

----------
# measurementTarget: Drosophila OR10a (Drosophila melanogaster)
# Construct: expressed in transfected cells
# Sequence (Q9VYZ1 whole entry, one chain of several): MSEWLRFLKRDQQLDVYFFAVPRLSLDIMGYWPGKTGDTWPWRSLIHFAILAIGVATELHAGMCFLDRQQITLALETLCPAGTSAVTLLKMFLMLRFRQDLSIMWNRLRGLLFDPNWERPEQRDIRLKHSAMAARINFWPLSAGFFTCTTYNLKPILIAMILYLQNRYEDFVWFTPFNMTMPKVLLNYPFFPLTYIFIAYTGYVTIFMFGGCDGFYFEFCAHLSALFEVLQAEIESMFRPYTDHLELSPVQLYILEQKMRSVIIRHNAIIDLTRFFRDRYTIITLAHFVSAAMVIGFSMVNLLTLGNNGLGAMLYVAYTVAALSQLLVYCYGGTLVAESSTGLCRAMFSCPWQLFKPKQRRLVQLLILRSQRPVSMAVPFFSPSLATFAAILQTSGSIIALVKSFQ
# procedureDetails: Calcium ion fluorescence (GCaMP6) assay, OR10a stable HEK293 cell line
# Format: cell-based
# runParameters: HEK293, read-out: OR10a response (VUAA1-normalized response), VOC concentration 1 μM
# Experimental: These VUAA1 normalized ∆F values were used to compare the different receptors and ligands. The concentration-dependent effect of the reference ligands on their cognate cell lines was examined in more detail. Twelve different ligand concentrations were measured on each cell line in an overall 0.01 μM to 100 μM concentration range with 5 repetitions with three technical replicates each time. […]
readoutType: activation at 1 µM (%)

- compound: "CCOC(=O)c1ccccc1 [ethyl benzoate]"
  readoutType: "activation at 1 µM"
  readoutNumber: 29
- compound: "C=C1CC/C=C(\\C)CC[C@@H]2[C@@H]1CC2(C)C [(-)-trans-caryophyllene]"
  readoutType: "activation at 1 µM"
  readoutNumber: 14
- compound: "CCCCCCCCC(CO)CCCCCC (stereo not shown)"
  readoutType: "activation at 1 µM"
  readoutNumber: 15
- compound: "CCCCOC(=O)CC [butyl propanoate]"
  readoutType: "activation at 1 µM"
  readoutNumber: 0
- compound: "CCCCCO"
  readoutType: "activation at 1 µM"
  readoutNumber: 0
- compound: "CCCCC(C)O (stereo not shown)"
  readoutType: "activation at 1 µM"
  readoutNumber: 0
- compound: "CCCCOC(C)=O [butyl acetate]"
  readoutType: "activation at 1 µM"
  readoutNumber: 0
- compound: "CCCC(=O)OCC [ethyl butyrate]"
  readoutType: "activation at 1 µM"
  readoutNumber: 0
- compound: "CCCCCCCCCC=O"
  readoutType: "activation at 1 µM"
  readoutNumber: 0
- compound: "CCCCCC(O)CC (stereo not shown)"
  readoutType: "activation at 1 µM"
  readoutNumber: 0
- compound: "C=CC(O)CCCCC (stereo not shown)"
  readoutType: "activation at 1 µM"
  readoutNumber: 0
- compound: "CCCCCC(=O)CC"
  readoutType: "activation at 1 µM"
  readoutNumber: 0
- compound: "CCCCCC(C)=O"
  readoutType: "activation at 1 µM"
  readoutNumber: 0
- compound: "CC(=O)OCC(C)C [isobutyl acetate]"
  readoutType: "activation at 1 µM"
  readoutNumber: 6.57
- compound: "CCCC(O)CC (stereo not shown)"
  readoutType: "activation at 1 µM"
  readoutNumber: 16
- compound: "CCCCC(C)=O"
  readoutType: "activation at 1 µM"
  readoutNumber: 10
- compound: "CCCCCCCO"
  readoutType: "activation at 1 µM"
  readoutNumber: 0
- compound: "C=C1CCC2CC1C2(C)C (stereo not shown)"
  readoutType: "activation at 1 µM"
  readoutNumber: 0
- compound: "CC1=CCC2C(C1)C2(C)C (stereo not shown)"
  readoutType: "activation at 1 µM"
  readoutNumber: 7
- compound: "CCOC(=O)CC [ethyl propionate]"
  readoutType: "activation at 1 µM"
  readoutNumber: 0
- compound: "CCCCCC(=O)OCC [ethyl hexanoate]"
  readoutType: "activation at 1 µM"
  readoutNumber: 6
- compound: "CC1=CCC2CC1C2(C)C (stereo not shown)"
  readoutType: "activation at 1 µM"
  readoutNumber: 0
- compound: "CC(=O)c1ccccc1"
  readoutType: "activation at 1 µM"
  readoutNumber: 0
- compound: "Cc1ccc(C)c(C)c1"
  readoutType: "activation at 1 µM"
  readoutNumber: 7
- compound: "Cc1ccc(O)cc1"
  readoutType: "activation at 1 µM"
  readoutNumber: 0
- compound: "CCCCCC(C)O (stereo not shown)"
  readoutType: "activation at 1 µM"
  readoutNumber: 0
- compound: "Cc1cccc(O)c1"
  readoutType: "activation at 1 µM"
  readoutNumber: 9
- compound: "O=Cc1ccccc1"
  readoutType: "activation at 1 µM"
  readoutNumber: 0

----------
# measurementTarget: Drosophila OR13a (Drosophila melanogaster, UniProt Q9VXL0)
# Construct: expressed in transfected cells
# Sequence (Q9VXL0 1-418): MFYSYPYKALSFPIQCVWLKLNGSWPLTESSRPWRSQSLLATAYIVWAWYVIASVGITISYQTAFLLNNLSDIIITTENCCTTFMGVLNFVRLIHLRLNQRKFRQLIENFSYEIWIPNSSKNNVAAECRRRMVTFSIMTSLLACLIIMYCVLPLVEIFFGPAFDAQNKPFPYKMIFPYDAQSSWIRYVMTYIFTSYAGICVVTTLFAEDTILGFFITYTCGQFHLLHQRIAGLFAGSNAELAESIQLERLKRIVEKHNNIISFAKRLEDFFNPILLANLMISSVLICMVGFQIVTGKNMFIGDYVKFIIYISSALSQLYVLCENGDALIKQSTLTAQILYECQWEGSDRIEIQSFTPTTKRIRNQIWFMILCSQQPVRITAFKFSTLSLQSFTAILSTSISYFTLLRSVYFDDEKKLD
# Sequence (Q9VNB5 1-486 partner): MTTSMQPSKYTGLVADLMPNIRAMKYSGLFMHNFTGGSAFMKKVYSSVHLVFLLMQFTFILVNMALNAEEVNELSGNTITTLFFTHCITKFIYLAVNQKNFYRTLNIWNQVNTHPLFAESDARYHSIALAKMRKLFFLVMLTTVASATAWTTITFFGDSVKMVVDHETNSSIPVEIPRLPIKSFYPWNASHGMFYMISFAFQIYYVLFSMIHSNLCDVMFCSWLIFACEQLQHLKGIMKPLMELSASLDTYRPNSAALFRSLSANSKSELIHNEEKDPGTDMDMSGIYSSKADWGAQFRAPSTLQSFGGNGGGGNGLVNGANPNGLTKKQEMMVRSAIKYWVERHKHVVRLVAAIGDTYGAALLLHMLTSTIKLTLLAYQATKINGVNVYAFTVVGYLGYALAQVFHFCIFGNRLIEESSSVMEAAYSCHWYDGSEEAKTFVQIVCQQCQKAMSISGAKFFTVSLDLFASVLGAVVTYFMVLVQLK
# procedureDetails: Calcium ion fluorescence (GCaMP6) assay, OR13a stable HEK293 cell line
# Assay type: cell-based
# runParameters: HEK293, read-out: OR13a Average response (VUAA1-normalized), 1 μM VOC; 50 μM VUAA1 = 1; responses not exceeding 0.05 considered 0
# Protocol: These VUAA1 normalized ∆F values were used to compare the different receptors and ligands. The concentration-dependent effect of the reference ligands on their cognate cell lines was examined in more detail. Twelve different ligand concentrations were measured on each cell line in an overall 0.01 μM to 100 μM concentration range with 5 repetitions with three technical replicates each time. […]

- molecule: "C=C1CCC2CC1C2(C)C (stereo not drawn) [beta-pinene]"
  measurementTarget: "Drosophila OR13a (Drosophila melanogaster, UniProt Q9VXL0)"
  activation at 1 µM / %: 8
- molecule: "COC(=O)c1ccccc1O [methyl salicylate]"
  measurementTarget: "Drosophila OR13a (Drosophila melanogaster, UniProt Q9VXL0)"
  activation at 1 µM / %: 0
- molecule: "CCOC(=O)c1ccccc1 [ethyl benzoate]"
  measurementTarget: "Drosophila OR13a (Drosophila melanogaster, UniProt Q9VXL0)"
  activation at 1 µM / %: 1.69
- molecule: "CCCCCOC(C)=O [pentyl acetate]"
  measurementTarget: "Drosophila OR13a (Drosophila melanogaster, UniProt Q9VXL0)"
  activation at 1 µM / %: 4
- molecule: "CC(=O)OCC(C)C [isobutyl acetate]"
  measurementTarget: "Drosophila OR13a (Drosophila melanogaster, UniProt Q9VXL0)"
  activation at 1 µM / %: 2
- molecule: "CCCCCCCCCC=O [decanal]"
  measurementTarget: "Drosophila OR13a (Drosophila melanogaster, UniProt Q9VXL0)"
  activation at 1 µM / %: 0
- molecule: "CCCCOC(=O)CC [butyl propanoate]"
  measurementTarget: "Drosophila OR13a (Drosophila melanogaster, UniProt Q9VXL0)"
  activation at 1 µM / %: 0
- molecule: "CCOC(=O)CC [ethyl propionate]"
  measurementTarget: "Drosophila OR13a (Drosophila melanogaster, UniProt Q9VXL0)"
  activation at 1 µM / %: 0
- molecule: "CC(=O)OCCC(C)C [isopentyl acetate]"
  measurementTarget: "Drosophila OR13a (Drosophila melanogaster, UniProt Q9VXL0)"
  activation at 1 µM / %: 3
- molecule: "CCCCOC(C)=O [butyl acetate]"
  measurementTarget: "Drosophila OR13a (Drosophila melanogaster, UniProt Q9VXL0)"
  activation at 1 µM / %: 0
- molecule: "CCCCCCCCCCCCCC [tetradecane]"
  measurementTarget: "Drosophila OR13a (Drosophila melanogaster, UniProt Q9VXL0)"
  activation at 1 µM / %: 2.63
- molecule: "Cc1cccc(C)c1 [m-xylene]"
  measurementTarget: "Drosophila OR13a (Drosophila melanogaster, UniProt Q9VXL0)"
  activation at 1 µM / %: 0
- molecule: "C=Cc1ccccc1 [styrene]"
  measurementTarget: "Drosophila OR13a (Drosophila melanogaster, UniProt Q9VXL0)"
  activation at 1 µM / %: 3
- molecule: "CC1=CCC2C(C1)C2(C)C (stereo not drawn) [3-carene]"
  measurementTarget: "Drosophila OR13a (Drosophila melanogaster, UniProt Q9VXL0)"
  activation at 1 µM / %: 0
- molecule: "CCCCC(C)=O [2-hexanone]"
  measurementTarget: "Drosophila OR13a (Drosophila melanogaster, UniProt Q9VXL0)"
  activation at 1 µM / %: 6
- molecule: "CC1=CCC23CC1C(C)(C)C2CCC3C (stereo not drawn) [α-funebrene]"
  measurementTarget: "Drosophila OR13a (Drosophila melanogaster, UniProt Q9VXL0)"
  activation at 1 µM / %: 0
- molecule: "CCCOC(C)=O [propyl acetate]"
  measurementTarget: "Drosophila OR13a (Drosophila melanogaster, UniProt Q9VXL0)"
  activation at 1 µM / %: 0
- molecule: "C=CC(O)C/C=C\\CC (stereo not drawn) [(5Z)-octa-1,5-dien-3-ol]"
  measurementTarget: "Drosophila OR13a (Drosophila melanogaster, UniProt Q9VXL0)"
  activation at 1 µM / %: 0
- molecule: "Cc1ccc(C)cc1 [p-xylene]"
  measurementTarget: "Drosophila OR13a (Drosophila melanogaster, UniProt Q9VXL0)"
  activation at 1 µM / %: 0
- molecule: "CCCCCCCCC=O [nonanal]"
  measurementTarget: "Drosophila OR13a (Drosophila melanogaster, UniProt Q9VXL0)"
  activation at 1 µM / %: 0
- molecule: "CCCCCCCCC(CO)CCCCCC (stereo not drawn) [2-hexyl-1-decanol]"
  measurementTarget: "Drosophila OR13a (Drosophila melanogaster, UniProt Q9VXL0)"
  activation at 1 µM / %: 7
- molecule: "CCCCCC(O)CC (stereo not drawn) [3-octanol]"
  measurementTarget: "Drosophila OR13a (Drosophila melanogaster, UniProt Q9VXL0)"
  activation at 1 µM / %: 0
- molecule: "CCCCCC(C)O (stereo not drawn) [2-heptanol]"
  measurementTarget: "Drosophila OR13a (Drosophila melanogaster, UniProt Q9VXL0)"
  activation at 1 µM / %: 4
- molecule: "CCCCC(C)O (stereo not drawn) [2-hexanol]"
  measurementTarget: "Drosophila OR13a (Drosophila melanogaster, UniProt Q9VXL0)"
  activation at 1 µM / %: 0
